molecular target: UniProt P19838; test: Electrochemiluminescence biosensor of recombinant p50 binding to dsDNA
Sequence (P19838 whole entry): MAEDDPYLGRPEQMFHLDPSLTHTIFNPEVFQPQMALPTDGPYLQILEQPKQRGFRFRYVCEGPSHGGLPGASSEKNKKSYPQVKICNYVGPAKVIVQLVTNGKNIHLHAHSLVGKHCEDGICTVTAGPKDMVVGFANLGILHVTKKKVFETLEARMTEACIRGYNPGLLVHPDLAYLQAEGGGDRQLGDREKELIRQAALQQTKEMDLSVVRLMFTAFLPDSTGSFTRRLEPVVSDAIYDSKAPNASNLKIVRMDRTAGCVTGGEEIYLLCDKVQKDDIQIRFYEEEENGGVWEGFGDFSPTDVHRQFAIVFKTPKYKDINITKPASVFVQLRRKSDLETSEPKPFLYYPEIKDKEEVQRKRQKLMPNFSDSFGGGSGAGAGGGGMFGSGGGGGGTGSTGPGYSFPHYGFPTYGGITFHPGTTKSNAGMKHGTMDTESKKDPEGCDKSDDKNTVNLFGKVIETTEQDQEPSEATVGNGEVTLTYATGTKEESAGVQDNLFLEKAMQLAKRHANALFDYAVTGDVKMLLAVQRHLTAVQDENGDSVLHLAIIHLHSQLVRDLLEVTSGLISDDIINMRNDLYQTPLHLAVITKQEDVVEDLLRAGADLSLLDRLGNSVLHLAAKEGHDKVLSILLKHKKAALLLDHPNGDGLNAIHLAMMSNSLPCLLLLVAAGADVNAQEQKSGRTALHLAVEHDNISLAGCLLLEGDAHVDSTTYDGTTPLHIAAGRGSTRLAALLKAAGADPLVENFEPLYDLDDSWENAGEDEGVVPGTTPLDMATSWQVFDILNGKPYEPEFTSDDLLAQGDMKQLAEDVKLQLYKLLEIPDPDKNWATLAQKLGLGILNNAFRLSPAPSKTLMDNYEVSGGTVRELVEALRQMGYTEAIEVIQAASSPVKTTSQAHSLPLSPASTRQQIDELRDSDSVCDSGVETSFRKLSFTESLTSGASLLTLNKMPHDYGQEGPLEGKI
parameter measured: IC50

Form field - read-out: IC50; system: UniProt P19838; submitted item: O=C(NC1=CC(=O)[C@H]2O[C@H]2[C@H]1O)c1ccccc1O [(−)-DHMEQ] 0.83 nM

Taken from paper PMC7772087.
